max response values by entry
# measurement-notes: qHTS Assay for Identifying Gametocytocidal Compounds (AID 743244);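 further: on the % scale 0 is the no-effect control and ±100 the full control effect; actives lower the fluorescent signal which means gametocytes are killed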
# test-context: P. falciparum 3D7 stage III-V gametocytes, alamarBlue, 72 h; stronger effect = lower value
Results filed as inconclusive are left out. Activity calls are given as the source filed them. The call rests on the fitted dose curve; in most records, active means well fitted curve in the direction sought with a large enough effect; inconclusive means small, poorly fitted or top-dose-only effect, or another doubt; inactive means no such curve, though single readings can be large or run the other way.
measurement-label: max response

>  <compound>
O=c1ccc2c(OCCCCc3ccccc3)c3ccoc3cc2o1

>  <measurement-label>
max response

>  <value-measured>
10.3% (inactive)

$$$$
>  <compound>
N[C@H]1CONC1=O

>  <measurement-label>
max response

>  <value-measured>
7.19% (inactive)

$$$$
>  <compound>
CN1CC(O)C(O)C(O)C1CO (stereo unspecified)

>  <measurement-label>
max response

>  <value-measured>
11.6% (inactive)

$$$$
>  <compound>
CCCn1c(=O)c2c(ncn2C)n(CCC)c1=O

>  <measurement-label>
max response

>  <value-measured>
12.3% (inactive)

$$$$
>  <compound>
COc1cc(N)c(Cl)cc1C(=O)OCCN1CCCCC1

>  <measurement-label>
max response

>  <value-measured>
4.04% (inactive)

$$$$
>  <compound>
O=C(O)/C=C/c1ccc(O)c(O)c1

>  <measurement-label>
max response

>  <value-measured>
8.93% (inactive)

$$$$

###

# measurement-notes: qHTS Assay for Identifying Gametocytocidal Compounds (AID 743244);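 further: on the % scale 0 is the no-effect control and ±100 the full control effect; actives lower the fluorescent signal which means gametocytes are killed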
# test-context: P. falciparum 3D7 stage III-V gametocytes, alamarBlue, 72 h; stronger effect = lower value
Results filed as inconclusive are left out. Calls of active or inactive are those of the source. The call rests on the fitted dose curve; in most records, active means well fitted curve in the direction sought with a large enough effect; inconclusive means small, poorly fitted or top-dose-only effect, or another doubt; inactive means no such curve, though single readings can be large or run the other way.
max response values by entry

>  <molecule>
O=[N+]([O-])c1cccc2cn[nH]c12

>  <max response>
8.31% (inactive)

$$$$
>  <molecule>
CCCCC[C@H](CC(=O)NO)C(=O)N[C@H](C(=O)N1CCC[C@H]1CO)C(C)C

>  <max response>
14.1% (inactive)

$$$$
>  <molecule>
CC(=O)NNC(=O)N1Cc2ccccc2Oc2ccc(Cl)cc21

>  <max response>
7.75% (inactive)

$$$$
>  <molecule>
N#C/C(=C\c1ccc(O)c(O)c1)C(=O)NCCc1ccccc1

>  <max response>
5.86% (inactive)

$$$$
>  <molecule>
CCCCCCCCCCC/C=C\C(C)(C)/C=C\CCCC(=O)O

>  <max response>
11.6% (inactive)

$$$$
>  <molecule>
CC1=C(/C=C/C(C)=C/C=C/C(C)=C\C(=O)O)C(C)(C)CCC1

>  <max response>
17.8% (inactive)

$$$$
>  <molecule>
Clc1nccc2c1ccc1ccccc12

>  <max response>
7.1% (inactive)

$$$$
>  <molecule>
CC(N)(C(=O)O)c1ccc(C(=O)O)cc1 (stereo not given)

>  <max response>
12% (inactive)

$$$$
>  <molecule>
CNc1cc(NS(=O)(=O)c2ccc(N)cc2)nc(NC)n1

>  <max response>
12.8% (inactive)

$$$$
>  <molecule>
N[C@@H](CS(=O)O)C(=O)O

>  <max response>
27.3% (inactive)

$$$$
>  <molecule>
CCCCCCCC/C=C\CCCCCCCC(=O)NCCc1ccc(O)c(O)c1

>  <max response>
7.46% (inactive)

$$$$
>  <molecule>
C#CC(N)CCC(=O)O (stereo not given)

>  <max response>
8.18% (inactive)

$$$$
>  <molecule>
CC(C)(C)c1ccc(/C=C/C(=O)Nc2ccc3c(c2)OCCO3)cc1

>  <max response>
13.4% (inactive)

$$$$
>  <molecule>
[N-]=[N+]=Nc1ccc(C(=O)CSC[C@H](NC(=O)CC[C@H](N)C(=O)O)C(=O)NCC(=O)O)cc1

>  <max response>
27% (inactive)

$$$$
>  <molecule>
COC1(C2=NCCN2)COc2ccccc2O1 (stereo not given)

>  <max response>
25.5% (inactive)

$$$$
>  <molecule>
COc1cc(/C=C(\C#N)C(=O)Nc2nnc(C(F)(F)F)s2)ccc1OCc1ccc(C(F)(F)F)cc1C(F)(F)F

>  <max response>
5.8% (inactive)

$$$$
>  <molecule>
CCCCCC(O)CCCC(=O)O (stereo not given)

>  <max response>
-4.98% (inactive)

$$$$
>  <molecule>
CC(C)[C@@H]1CC[C@@H](C)C[C@@H]1P(=O)(c1ccccc1)c1ccccc1

>  <max response>
7.79% (inactive)

$$$$
>  <molecule>
O=c1[nH]ccc2c(O)cccc12

>  <max response>
22.6% (inactive)

$$$$
>  <molecule>
O=C1C2C=CC=CC2=NC(=S)N1CCN1CCC(=C(c2ccc(F)cc2)c2ccc(F)cc2)CC1 (stereo not given)

>  <max response>
2.83% (inactive)

$$$$
>  <molecule>
Nc1ccc(-c2ccc3ccccc3n2)cc1

>  <max response>
11.1% (inactive)

$$$$
>  <molecule>
CC(C)C[C@H](NC(=O)C1OC1C(=O)O)C(=O)NCCCCN=C(N)N (stereo not given in full)

>  <max response>
-4.29% (inactive)

$$$$
>  <molecule>
C=C(C)C1CC=C(C(=O)O)CC1 (stereo not given)

>  <max response>
19.6% (inactive)

$$$$
>  <molecule>
CNc1ncnc2c1ncn2[C@H]1C[C@H](OP(=O)(O)O)[C@@H](COP(=O)(O)O)O1

>  <max response>
21.7% (inactive)

$$$$
>  <molecule>
Nc1ncnc2c1c(-c1ccc(Oc3ccccc3)cc1)cn2C1CCCC1

>  <max response>
4.42% (inactive)

$$$$

###

# measurement-notes: Stat Signaling Pathway (AID 446);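 further: ME-180 cervical cancer cells given 40 pM IL-6 alongside compound; SIE-controlled beta-lactamase reporter measured as 460/530 nm FRET emission ratio; on the % scale 0 is the no-effect control and ±100 the full control effect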
# test-context: ME-180 (cervical carcinoma) SIE beta-lactamase reporter, IL-6 stimulated, 5 h; at 38 µM (top of the series) unless noted
Records with an inconclusive call do not appear. Activity calls are given as the source filed them. Calls follow the shape of the dose curve; as a rule, active = well fitted curve in either direction with a large enough effect (not every such curve was filed as active); inconclusive = small, poorly fitted or top-dose-only effect, or another doubt; inactive = flat fitted curve, though single readings scatter.
Possible outcomes: active, inactive

>  <compound>
O=C1Cc2c([nH]c3ccc(Br)cc23)-c2ccccc2N1

>  <label-class>
active

$$$$
>  <compound>
NCCCCN=C(N)N

>  <label-class>
inactive

$$$$
>  <compound>
NCCS(=O)O

>  <label-class>
inactive

$$$$
>  <compound>
Cc1nc(N=Nc2ccc(S(=O)(=O)O)cc2S(=O)(=O)O)c(COP(=O)(O)O)c(C=O)c1O

>  <label-class>
inactive

$$$$
>  <compound>
c1ccc(CN2CCC3(CCCc4ccccc43)CC2)cc1

>  <label-class>
inactive

$$$$
>  <compound>
CC(N)=O

>  <label-class>
inactive

$$$$
>  <compound>
Cc1nc2c(OCc3ccccc3)cccn2c1CC#N

>  <label-class>
inactive

$$$$
>  <compound>
NOCC(=O)O

>  <label-class>
inactive

$$$$
>  <compound>
CCN(c1nc(N)c(C(=O)N=C(N)N)nc1Cl)C(C)C

>  <label-class>
inactive

$$$$
>  <compound>
O=c1[nH]c2cc(Cl)ccc2c(O)c1-c1ccc(Oc2ccccc2)cc1

>  <label-class>
inactive

$$$$
>  <compound>
CN(C)CCC(c1ccc(Br)cc1)c1ccccn1 (centres undefined)

>  <label-class>
inactive

$$$$
>  <compound>
O=C(O)c1cc(=O)cc(C(=O)O)[nH]1

>  <label-class>
inactive

$$$$
>  <compound>
O=c1[nH]ccc2c(O)cccc12

>  <label-class>
inactive

$$$$
>  <compound>
O=c1[nH]c2ccccc2c2ccccc12

>  <label-class>
inactive

$$$$
>  <compound>
CC[N+](CC)(CC)CC(=O)Nc1c(C)cccc1C

>  <label-class>
inactive

$$$$
>  <compound>
C#CCn1c(=O)c2c(ncn2C)n(C)c1=O

>  <label-class>
inactive

$$$$
>  <compound>
c1ccc2nc(C3=NCCN3)ccc2c1

>  <label-class>
inactive

$$$$
>  <compound>
COc1ccc2c(c1)c(CC(=O)O)c(C)n2C(=O)c1ccccc1

>  <label-class>
inactive

$$$$
>  <compound>
O=C(O)Cc1ccc(O)c(O)c1

>  <label-class>
inactive

$$$$
>  <compound>
Nc1nc2[nH]c(=O)cnc2c(=O)[nH]1

>  <label-class>
inactive

$$$$
>  <compound>
Nc1ncnc2c1c(-c1ccc(Oc3ccccc3)cc1)cn2C1CCCC1

>  <label-class>
inactive

$$$$
>  <compound>
N=C(N)c1ccccc1

>  <label-class>
inactive

$$$$
>  <compound>
CCC(=O)N1CCN(C(=O)c2ccccc2)CC1

>  <label-class>
inactive

$$$$
>  <compound>
Cc1ccc2c(c1)C(N1CCN(C)CC1)=Nc1cccnc1N2

>  <label-class>
inactive

$$$$
>  <compound>
N=C(N)c1ccc(OCCCCCOc2ccc(C(=N)N)cc2)cc1 (tested in a mixture with another compound)

>  <label-class>
inactive

$$$$
>  <compound>
CC(C)Cn1c(=O)n(C)c(=O)c2[nH]cnc21

>  <label-class>
inactive

$$$$
>  <compound>
COCc1nc2c([nH]1)c(=O)n(C)c(=O)n2CC(C)C

>  <label-class>
inactive

$$$$
>  <compound>
C=CC[C@H](N)C(=O)O

>  <label-class>
inactive

$$$$
>  <compound>
[Li+]

>  <label-class>
inactive

$$$$
>  <compound>
Oc1ccc(Cn2cc[nH]c2=S)cc1

>  <label-class>
inactive

$$$$
>  <compound>
NS(=O)(=O)c1cccc2c1c([N+](=O)[O-])cc1nc(O)c(O)nc12

>  <label-class>
inactive

$$$$
>  <compound>
N#C/C(=C\c1ccc(O)c(O)c1)C(=O)NCCCNC(=O)/C(C#N)=C/c1ccc(O)c(O)c1

>  <label-class>
inactive

$$$$
>  <compound>
COc1ccccc1N1CCN(CCCCN2C(=O)c3ccccc3C2=O)CC1

>  <label-class>
inactive

$$$$
>  <compound>
C[C@H](O)C(=O)C1=Nc2c(nc(N)[nH]c2=O)NC1

>  <label-class>
inactive

$$$$
>  <compound>
CCCc1c(OCCCOc2ccc(OCC(=O)O)cc2)ccc(C(C)=O)c1O

>  <label-class>
inactive

$$$$
>  <compound>
NC1(C(=O)O)CCCCC1

>  <label-class>
inactive

$$$$
>  <compound>
CCCCCCC/C=C\CCCCCCCCC(=O)O

>  <label-class>
inactive

$$$$
>  <compound>
NC(N)=NC(N)=Nc1ccccc1

>  <label-class>
inactive

$$$$
>  <compound>
CN[C@H](CC(=O)O)C(=O)O

>  <label-class>
inactive

$$$$
>  <compound>
CCN1C(=O)C=CC1=O

>  <label-class>
inactive

$$$$
>  <compound>
CCSC(=N)N

>  <label-class>
inactive

$$$$
>  <compound>
COc1ccc(CCN(C)CCc2ccc(OC)c(OC)c2)cc1OC

>  <label-class>
inactive

$$$$
>  <compound>
Cc1nc(N=Nc2ccc(C(=O)O)cc2)c(COP(=O)(O)O)c(C=O)c1O

>  <label-class>
inactive

$$$$
>  <compound>
CCCCCCN(CCCCCC)C(=O)Cc1c(-c2ccc(F)cc2)[nH]c2ccccc12

>  <label-class>
inactive

$$$$
>  <compound>
O=C(O)C1=CCCN(CCON=C(c2ccccc2)c2ccccc2)C1

>  <label-class>
inactive

$$$$
>  <compound>
COc1ccc(-c2ccc(N)[n+](CCCC(=O)O)n2)cc1

>  <label-class>
inactive

$$$$
>  <compound>
NC(=O)c1ccccc1

>  <label-class>
inactive

$$$$
>  <compound>
NC(N)=NC(N)=Nc1cccc(Cl)c1

>  <label-class>
inactive

$$$$
>  <compound>
NCCCNCCCCNCCCN

>  <label-class>
inactive

$$$$
>  <compound>
Cn1ccnc1

>  <label-class>
inactive

$$$$
>  <compound>
CC(=O)NCCc1c[nH]c2ccc(O)cc12

>  <label-class>
inactive

$$$$
>  <compound>
Cn1c(=O)[nH]c2ncn(C)c2c1=O

>  <label-class>
inactive

$$$$
>  <compound>
N[C@H](C(=O)O)c1cc(O)cc(O)c1

>  <label-class>
inactive

$$$$
>  <compound>
NC(N)=[N+]1CCc2ccccc2C1

>  <label-class>
inactive

$$$$
